# Experimental system: UniProt Q12809
# Sequence (Q12809 whole entry): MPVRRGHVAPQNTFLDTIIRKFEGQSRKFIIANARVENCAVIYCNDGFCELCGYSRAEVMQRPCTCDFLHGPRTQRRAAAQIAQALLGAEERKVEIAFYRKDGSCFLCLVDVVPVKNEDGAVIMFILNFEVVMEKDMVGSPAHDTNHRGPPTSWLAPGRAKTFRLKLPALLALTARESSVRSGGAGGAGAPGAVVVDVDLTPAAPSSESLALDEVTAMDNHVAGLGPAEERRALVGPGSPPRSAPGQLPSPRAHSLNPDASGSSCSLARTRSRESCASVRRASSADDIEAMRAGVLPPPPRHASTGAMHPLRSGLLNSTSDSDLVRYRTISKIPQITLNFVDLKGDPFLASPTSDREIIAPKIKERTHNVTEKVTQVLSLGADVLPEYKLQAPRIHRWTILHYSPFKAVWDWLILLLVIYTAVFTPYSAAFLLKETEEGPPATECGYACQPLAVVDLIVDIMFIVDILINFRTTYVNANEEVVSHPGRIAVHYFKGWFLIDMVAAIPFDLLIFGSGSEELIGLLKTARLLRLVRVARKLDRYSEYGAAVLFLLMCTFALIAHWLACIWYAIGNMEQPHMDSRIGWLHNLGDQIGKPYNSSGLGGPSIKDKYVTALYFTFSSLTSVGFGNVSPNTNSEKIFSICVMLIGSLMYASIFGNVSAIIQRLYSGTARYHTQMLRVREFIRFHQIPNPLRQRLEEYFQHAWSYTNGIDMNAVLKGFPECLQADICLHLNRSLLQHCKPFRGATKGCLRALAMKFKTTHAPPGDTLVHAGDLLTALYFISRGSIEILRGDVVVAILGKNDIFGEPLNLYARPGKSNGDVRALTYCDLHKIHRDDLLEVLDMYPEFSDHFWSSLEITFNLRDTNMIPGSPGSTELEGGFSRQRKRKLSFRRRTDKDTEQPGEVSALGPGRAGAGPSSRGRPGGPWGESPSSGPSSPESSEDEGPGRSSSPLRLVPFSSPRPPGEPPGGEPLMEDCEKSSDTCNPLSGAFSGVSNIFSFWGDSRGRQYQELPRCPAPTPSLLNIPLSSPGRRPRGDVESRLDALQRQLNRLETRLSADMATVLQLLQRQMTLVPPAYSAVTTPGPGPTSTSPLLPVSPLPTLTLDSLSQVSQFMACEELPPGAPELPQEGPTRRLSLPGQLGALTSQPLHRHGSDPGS
# Measurement description: hERG screening, IonWorks Quattro (hERG L929 cells)
# Format: cell-based
# Condition details: L929 cells expressing hERG, 1 uM, read-out: HERG Ionworks % Inhib 1 uM
Endpoint name: inhibition at 5 min, 1 uM (%)
API: value field is a number in %; no unit string.

A selection of reference data follows.
COc1nc(N2C[C@H]3C(=O)N(C)C(N)=N[C@@]3(c3cc(F)c(F)cc3F)C2)nc(C)c1F | 21
COc1nc(N2C[C@H]3C(=O)N(C)C(=N)N[C@@]3(c3cc(F)ccc3F)C2)nc(C2CC2)c1F | 7
Cc1nc(N2C[C@H]3C(=O)N(C)C(=N)N[C@@]3(c3cccc(C#N)c3)C2)nc(C2CC2)c1F | 6

Now examine the next entry.
q: If you can, please state the reported inhibition at 5 min, 1 uM value of COc1nc(N2C[C@H]3C(=O)N(C)C(=N)N[C@@]3(c3ccc(F)cc3F)C2)nc(C2CC2)c1Cl .
a: 3

----------
soluble human BACE1 catalytic domain (Homo sapiens (Human), UniProt P56817): reported pKi for various molecules.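 Also: cleavage of a quenched APP Swedish mutant peptide (QSY7 quencher, Europium donor) measured as rise in 620 nm fluorescence after 1.5 h at 30 °C, inhibition suppresses signal.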
Sequence (P56817 75-416): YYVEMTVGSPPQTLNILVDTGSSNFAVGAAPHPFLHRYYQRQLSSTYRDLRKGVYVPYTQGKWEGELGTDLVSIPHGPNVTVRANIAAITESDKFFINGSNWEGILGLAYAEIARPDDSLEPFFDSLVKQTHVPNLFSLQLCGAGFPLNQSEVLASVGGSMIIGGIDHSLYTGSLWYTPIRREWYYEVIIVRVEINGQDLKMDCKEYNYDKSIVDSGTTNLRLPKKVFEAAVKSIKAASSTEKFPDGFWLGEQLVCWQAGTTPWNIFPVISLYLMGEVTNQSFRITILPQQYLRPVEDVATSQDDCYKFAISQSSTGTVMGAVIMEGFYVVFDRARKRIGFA
Please report pKi as the negative decimal logarithm of the molar concentration, giving only the number.

Completed entries (count: 5):
CCc1nc(N2C[C@H]3C(=O)N(C)C(=N)N[C@@]3(c3ccccc3)C2)nc(OC)c1F (racemic) [6 racemic] | 7.80
CCc1nc(N2C[C@H]3C(=O)N(C)C(=N)N[C@@]3(c3cc(F)ccc3F)C2)nc(OC)c1F | 8.16
COc1nc(N2C[C@H]3C(=O)N(C)C(=N)N[C@@]3(c3ccc(F)cc3F)C2)nc(CO)c1F | 7.80
COc1nc(N2C[C@H]3C(=O)N(C)C(=N)N[C@@]3(c3c(F)cc(F)cc3F)C2)nc(C)c1F | 7.82
CCc1nc(N2C[C@H]3C(=O)N(C)C(=N)N[C@@]3(c3ccc(F)cc3)C2)nc(OC)c1F | 8.21

q: For the molecule CCc1nc(N2C[C@H]3C(=O)N(C)C(N)=N[C@@]3(c3ccccc3)C2)nc(C)c1F (racemic) [5 racemic] , what pKi is on record?
a: 7.21

q: Entry CCc1nc(N2C[C@H]3C(=O)N(C)C(N)=N[C@@]3(c3ccccc3)C2)nc(C2CC2)c1Cl (racemic) [26 racemic] : reported pKi = ?
a: 6.74

----------
# Experimental system: CYP2C9 (Homo sapiens (Human), UniProt P11712)
# Sequence (P11712 whole entry): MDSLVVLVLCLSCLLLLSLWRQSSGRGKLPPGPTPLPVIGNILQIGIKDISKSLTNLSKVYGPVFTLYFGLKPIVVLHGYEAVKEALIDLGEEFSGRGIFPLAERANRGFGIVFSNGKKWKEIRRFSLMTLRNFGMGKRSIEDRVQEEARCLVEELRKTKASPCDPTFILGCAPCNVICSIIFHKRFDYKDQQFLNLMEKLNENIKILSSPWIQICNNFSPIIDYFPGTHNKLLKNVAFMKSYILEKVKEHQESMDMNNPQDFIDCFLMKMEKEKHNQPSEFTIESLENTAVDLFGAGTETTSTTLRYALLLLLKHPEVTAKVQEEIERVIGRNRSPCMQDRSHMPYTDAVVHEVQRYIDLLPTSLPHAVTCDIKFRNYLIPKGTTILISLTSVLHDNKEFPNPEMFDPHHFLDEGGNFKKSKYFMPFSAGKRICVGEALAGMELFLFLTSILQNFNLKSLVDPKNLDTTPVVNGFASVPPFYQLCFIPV
# Measurement description: CYP Inhibition Assay, CYP2C9;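 also: probe substrate held close to its Km, with metabolite formation quantified by LC-MS/MS against a calibration curve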
# Format: in vitro ADME
# Condition details: human liver microsomes, 30 min pre-incubation with NADPH; read-out: CYP 2C9 IC50 pre
IC50 reference

COc1nc(N2C[C@H]3C(=O)N(C)C(=N)N[C@@]3(c3cccc(C#N)c3)C2)nc(C)c1F | > 20 µM
CCc1nc(N2C[C@H]3C(=O)N(C)C(N)=N[C@@]3(c3ccccc3)C2)nc(C2CC2)c1Cl (racemic) [26 racemic] | > 20 µM
CCc1nc(N2C[C@H]3C(=O)N(C)C(N)=N[C@@]3(c3ccccc3)C2)nc(C)c1F (racemic) [5 racemic] | > 30 µM
Cc1nc(N2C[C@H]3C(=O)N(C)C(N)=N[C@@]3(c3ccccc3)C2)nc(C)c1F (racemic) [23 racemic] | > 30 µM

q: // query IC50 value for entry COc1nc(N2C[C@H]3C(=O)N(C)C(=N)N[C@@]3(c3c(F)cc(F)cc3F)C2)nc(C)c1F
a: > 20 µM

q: Which IC50 value belongs to COc1nc(N2C[C@H]3C(=O)N(C)C(=N)N[C@@]3(c3ccc(F)cc3)C2)nc(C2CC2)c1F ?
a: > 20 µM

q: Param item = COc1nc(N2C[C@H]3C(=O)N(C)C(=N)N[C@@]3(c3cc(F)ccc3F)C2)nc(OC)c1F ; retrieve measured IC50.
a: ~30 µM

q: # input compound: CCOc1nc(N2C[C@H]3C(=O)N(C)C(=N)N[C@@]3(c3ccccc3)C2)nc(OC)c1F (racemic) [24 racemic] ; wanted: its IC50
a: > 30 µM

q: // query IC50 value for entry Cc1nc(N2C[C@H]3C(=O)N(C)C(=N)N[C@@]3(c3ccc(F)cc3)C2)nc(C)c1F
a: > 30 µM
